# TARGET OR TEST SYSTEM: MOZ-KAT6A (Homo sapiens, UniProt Q92794, A567V)
# Sequence (Q92794 with tags, fused parts or gaps A567V): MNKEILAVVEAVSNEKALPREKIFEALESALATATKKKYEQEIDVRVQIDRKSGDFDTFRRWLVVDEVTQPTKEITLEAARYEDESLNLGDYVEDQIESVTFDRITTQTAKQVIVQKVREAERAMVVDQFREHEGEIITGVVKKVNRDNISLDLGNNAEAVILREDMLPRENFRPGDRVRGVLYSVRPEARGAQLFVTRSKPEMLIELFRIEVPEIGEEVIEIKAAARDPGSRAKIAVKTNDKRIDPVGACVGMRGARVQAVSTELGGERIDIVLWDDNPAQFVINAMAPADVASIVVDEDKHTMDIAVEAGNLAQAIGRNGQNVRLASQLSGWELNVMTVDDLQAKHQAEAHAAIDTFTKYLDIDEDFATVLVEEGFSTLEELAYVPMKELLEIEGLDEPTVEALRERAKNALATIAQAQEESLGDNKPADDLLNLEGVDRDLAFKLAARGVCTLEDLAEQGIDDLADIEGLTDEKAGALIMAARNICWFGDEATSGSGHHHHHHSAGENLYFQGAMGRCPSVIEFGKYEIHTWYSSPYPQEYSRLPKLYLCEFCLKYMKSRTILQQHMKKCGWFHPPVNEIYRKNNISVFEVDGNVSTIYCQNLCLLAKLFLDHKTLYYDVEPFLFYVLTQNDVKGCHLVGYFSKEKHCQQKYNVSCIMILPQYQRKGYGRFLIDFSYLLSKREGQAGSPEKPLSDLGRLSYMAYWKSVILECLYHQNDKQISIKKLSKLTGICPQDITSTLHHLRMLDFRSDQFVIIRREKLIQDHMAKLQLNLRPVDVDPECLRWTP
# PROTOCOL TEXT: Acetyltransferase biochemical assay (AlphaScreen), KAT6A
Below, each entry is listed alongside its reported pIC50.
Friendly reminder that pIC50 comes from taking -log10 of the concentration in mol/L.

Some compounds with known pIC50 results, for comparison:
- O=S(=O)(Nc1noc2cccc(Cl)c12)c1cccc2nonc12: 4.82
- CCc1ccc(OC)c(S(=O)(=O)Nc2noc3ccc(Br)c(Cl)c23)c1: 6.60
- Cc1nnc(-c2cccc(S(=O)(=O)Nc3noc4ccccc34)c2)o1: 4.64
- CCc1ccc(OC)c(S(=O)(=O)Nc2noc3ccc(C(=O)NC)cc23)c1: 4.32
- COCc1cc2onc(NS(=O)(=O)c3c(OC)cccc3OC)c2c(OC)c1Cl: 6.90

Q: Indicate the recorded pIC50 value for this compound: COc1cccc(F)c1S(=O)(=O)Nc1noc2cccc(OC)c12
A: 5.67

Q: Kindly indicate its recorded pIC50. Item: COc1cccc(OC)c1S(=O)(=O)Nc1noc2cccc([N+](=O)[O-])c12
A: 4.59

Q: State, in one line, measured pIC50 of CCOc1cccc2c(NS(=O)(=O)c3cc(CC)ccc3OC)noc12
A: 5.13

Q: Provide measured pIC50 value, entry: CCc1cc(S(=O)(=O)Nc2noc3cccc(Cl)c23)c(=O)n(C)c1
A: 4.83
